The origin of these recorded values is ChEMBL document CHEMBL5131391.

Tested on: M14
Assay: Antiproliferative activity against human M14 cells assessed as growth inhibition at 10 uM measured after 48 hrs by NCI protocol based SRB assay relative to control
Format: functional
Conditions: read-out: GI
Give rule met when the value for inhibition of growth at 10 µM is at least 40%. Give rule not met when it is less.

sample_smiles	answer_label
N#Cc1c(-c2ccc(Cl)cc2)nc2c(c(-c3ccccc3)nn2-c2ccccc2)c1-c1ccc(O)cc1	rule met
N#Cc1c(-c2ccco2)nc2c(c(-c3ccccc3)nn2-c2ccccc2)c1-c1ccc(O)cc1	rule not met
N#Cc1c(-c2ccccc2)nc2c(c(-c3ccccc3)nn2-c2ccccc2)c1-c1ccc(O)cc1	rule met
COc1cc(-c2c(C#N)c(-c3ccccc3)nc3c2c(-c2ccccc2)nn3-c2ccccc2)ccc1O	rule not met

###

Tested on: HOP-62
Test: Antiproliferative activity against human HOP-62 cells assessed as growth inhibition at 10 uM measured after 48 hrs by NCI protocol based SRB assay relative to control
Type: functional
Conditions: read-out: GI
Measured inhibition of growth at 10 µM values are reported for all entries that follow.
measured_quantity: inhibition of growth at 10 µM (%)

sample_smiles	measured_quantity	result_number
N#Cc1c(-c2ccco2)nc2c(c(-c3ccccc3)nn2-c2ccccc2)c1-c1ccc(O)cc1	inhibition of growth at 10 µM	149
N#Cc1c(-c2ccc(Cl)cc2)nc2c(c(-c3ccccc3)nn2-c2ccccc2)c1-c1ccc(O)cc1	inhibition of growth at 10 µM	51
N#Cc1c(-c2ccccc2)nc2c(c(-c3ccccc3)nn2-c2ccccc2)c1-c1ccc(O)cc1	inhibition of growth at 10 µM	75
Cc1ccc(-c2nc3c(c(-c4ccccc4)nn3-c3ccccc3)c(-c3ccc(O)cc3)c2C#N)cc1	inhibition of growth at 10 µM	60
COc1cc(-c2c(C#N)c(-c3ccccc3)nc3c2c(-c2ccccc2)nn3-c2ccccc2)ccc1O	inhibition of growth at 10 µM	15

###

Measured inhibition of growth at 10 µM values are reported for all entries that follow.
Test system: LOX IMVI
Test: Antiproliferative activity against human LOX IMVI cells assessed as growth inhibition at 10 uM measured after 48 hrs by NCI protocol based SRB assay relative to control
Assay type: functional
Settings: read-out: GI
measured_quantity: inhibition of growth at 10 µM (%)

sample_smiles	target_or_system	result_number
N#Cc1c(-c2ccccc2)nc2c(c(-c3ccccc3)nn2-c2ccccc2)c1-c1ccc(O)cc1	LOX IMVI	148
COc1cc(-c2c(C#N)c(-c3ccccc3)nc3c2c(-c2ccccc2)nn3-c2ccccc2)ccc1O	LOX IMVI	26
N#Cc1c(-c2ccc(Cl)cc2)nc2c(c(-c3ccccc3)nn2-c2ccccc2)c1-c1ccc(O)cc1	LOX IMVI	74
Cc1ccc(-c2nc3c(c(-c4ccccc4)nn3-c3ccccc3)c(-c3ccc(O)cc3)c2C#N)cc1	LOX IMVI	88

###

Measured inhibition of growth at 10 µM values are reported for all entries that follow.
Tested on: OVCAR-3
Assay: Antiproliferative activity against human OVCAR-3 cells assessed as growth inhibition at 10 uM measured after 48 hrs by NCI protocol based SRB assay relative to control
Format: functional
Conditions: read-out: GI
measured_quantity: inhibition of growth at 10 µM

sample_smiles	result
Cc1ccc(-c2nc3c(c(-c4ccccc4)nn3-c3ccccc3)c(-c3ccc(O)cc3)c2C#N)cc1	36%
N#Cc1c(-c2ccc(Cl)cc2)nc2c(c(-c3ccccc3)nn2-c2ccccc2)c1-c1ccc(O)cc1	52%
N#Cc1c(-c2ccccc2)nc2c(c(-c3ccccc3)nn2-c2ccccc2)c1-c1ccc(O)cc1	46%
N#Cc1c(-c2ccco2)nc2c(c(-c3ccccc3)nn2-c2ccccc2)c1-c1ccc(O)cc1	14%
COc1cc(-c2c(C#N)c(-c3ccccc3)nc3c2c(-c2ccccc2)nn3-c2ccccc2)ccc1O	23%
